system: MS2 coat protein; experiment: apparent KD of MS2 coat protein; designed switch direction (-1 OFF switch, 1 ON switch): -1; higher = weaker reporter binding; settings: input ligand: microRNA oligo, concentration not stated
MEASUREMENT LABEL: apparent KD of MS2 coat protein (nM)
Answers are plain numbers, in nM.

SEQ STRING: GGUAGAGUGGUAGGAUAUCCGUCUGUUUCAGUCGGAGAAGGACCACAGUCACUGGGUCCUAAUAUCAUGGAGACCUGAUCUACC [pwkr exNG1 F6.12] (Eterna round: R96, puzzle: Exclusion NG 1)
TARGET: MS2 coat protein
MEASURED: 316

Give me apparent KD of MS2 coat protein for each of these sequences, listed below.
1. UGAGUGCUGCGAGGAUAUACAUGAGGAUCACCCAUGUAAUCGUGUGAGCCAAAGGCUCACACGAAGUAGAAGGCGCAGUACUCU [Mat - Exclusion NG 2 - Mod of JL - D25] (Eterna round: R96, puzzle: Exclusion NG 2)
2. UUAAAUCAUGUAGGAUAUGCGUGGCGAAGCUAUGCAGAAGGACAUGAGGAUCACCCAUGUGCUUGCGUCCGCGUACGGAUGCUA [JL ENG1 1.22] (Eterna round: R96, puzzle: Exclusion NG 1)
3. CCGAGGUGGCGGUCCUAUGACAUGAGGAUCACCCAUGUACCUCGCCACAAGCUCUUUGCUCAUCUUAUAGUUCUCGG [Onlaor] (Eterna round: R96, puzzle: Sensor v3, turn-off variant 1)
4. UUAAUUAAUUAACGCAGCAAGAUCACAUGAGGAUCACCCAUGUAGGAUAUCAGCUCGUUUAGAGCUGAGAAGGACAUAGCUGCG [ExNG3/1-A2] (Eterna round: R96, puzzle: Exclusion NG 3)
5. GCACGGAAAUUCCAUAAAACCACAUGAGGAUCACCCAUGUCUCAGGAUAUGGUCUGGAUUACAGGCCAGAAGGGAGAACCGUGC [Eli exng3 - 059] (Eterna round: R96, puzzle: Exclusion NG 3)
6. GAACAAGCGUGAGGCUCGUCUUAAAGAGCCUCAUGAAAAACAUGAGGAUCACCCAUGUAAAAUGAUCGAAAGAUCAA [Mat - Sensor v2 - var 2 - Mod - D131] (Eterna round: R96, puzzle: Sensor v2, turn-off variant 2)
7. AUAAUAUAUGUAGGAUAUCUGCACGAUUAGUGCAGAGAAGGACAUGAGGAUCACCCAUGUAAUUAAGAUCAAUUAUUAAAUUAU [ENG1/4-B1] (Eterna round: R96, puzzle: Exclusion NG 1)

[11.1, 94, 132, 11.1, 10.2, 12.7, 24.6]

Give me apparent KD of MS2 coat protein for each of these sequences, listed below.
1. UUUUUAGAUGAAGGAUAUACUUAACAUGAGGAUCACCCAUGUGGUGUUGUGAGUGAGUGAGUUUAGUAGAAGGUCAAGUAUUUU [JMF's solution 45] (Eterna round: R96, puzzle: Exclusion NG 2)
2. GGUCAGAUGGUAGGAUAUCUAUAUCGAGUGACCCUUUCAUAACAUGAGGAUCACCCAUGUCGGUGGGAGAAGGGCCGUACGGCG [salish99_ExNG02_R04_012] (Eterna round: R96, puzzle: Exclusion NG 2)
3. AACCUGAGGCUUUGCUUUAGGUGUACAUGAGGAUCACCCAUGUAGGAUAUGGUAGGCUUUGCUUACCAGAAGGACAUAAUGAUG [JL ENG3 1.16] (Eterna round: R96, puzzle: Exclusion NG 3)
4. AGGUGCCUCUGGAAACAUGAGGAUCACCCAUGUUGAGUUAGCGAGGAUAUCGGUAACCAUUGUUAUGAGAAGGCGCAAACCAGA [Ex NG3 #38] (Eterna round: R96, puzzle: Exclusion NG 3)
5. UGAGUGCUGCGAGGAUAUACAUGAGGAUCACCCAUGUUUUCGUGUGAGGCUUUGCCUCACACGAAGUAGAAGGCGCAGUACUCU [JL ENG2 1.12] (Eterna round: R96, puzzle: Exclusion NG 2)
6. CUUAAACAUGAGGAUCACCCAUGUGAGGAUAUGAUGCGAAUAAAGAAAGAAGAAAGCAUCAGAAGGCACAUAUG (Eterna round: R96, puzzle: Exclusion 1)
7. UUUUUAUAUGAAGGAUAUACUUAACAUGAGGAUCACCCAUGUGGUGUUGUGAGUGAGUGAGUUUAGUAGAAGGUCAAUUCUCUU [JMF's solution 81] (Eterna round: R96, puzzle: Exclusion NG 2)

1: 377; 2: 30.6; 3: 30.6; 4: 19.6; 5: 11.8; 6: 65.9; 7: 156

Give me apparent KD of MS2 coat protein for each of these sequences, listed below.
1. AAGGGACAUGAGGAUCACCCAUGUGAGGAUAUGCUAUGGAAAAUAAAAAAUAAACAUAGCAGAAGGCAUAAAAA [Mat - Exclusion 1 - Eli mod - D37] (Eterna round: R96, puzzle: Exclusion 1)
2. UAGAUGCUCAGGGAGUGUGACAUGAGGAUCACCCAUGUGGUGGUAGGGAACAAGCUUUUUGCACGUACUUAUGAGUA [JR_SV3TOV1_Sub007] (Eterna round: R96, puzzle: Sensor v3, turn-off variant 1)
3. UAUAUAUAGUAAGGAUAUGUAUUUAUUUCAUAAACAGAAGGUACUGACAUGAGGAUCACCCAUGUUUUAGUGUGGGCAUGUAGA [JMF's solution 21] (Eterna round: R96, puzzle: Exclusion NG 1)

65.3
148
62.1

###

tested on: MS2 coat protein; test: apparent KD of MS2 coat protein; higher = weaker reporter binding; conditions: Eterna round: R107; input ligand: arginine 13.2 mM
MEASUREMENT LABEL: apparent KD of MS2 coat protein

Check out these entries, answers already filled in.
SEQ STRING: UGUAUGGACUGAAGGAGCGCCUCAAAAUAACAUGAGGAUCACCCAUGUAGGCGAAAGCCUGGGCAGGUAGGUCGCAGUCCAUACU [ArgBX 2 #StaticStem #MS2Late]
apparent KD of MS2 coat protein: 20.9 nM

SEQ STRING: CUUGUCGUAACUGAUACCAGUGUACUGACAUGAGGAUCACCCAUGUUGGGUUUUGUUGUACACCCUUGGCAGCAGAAUCGAUAAG [AstrosExyTheB#9]
apparent KD of MS2 coat protein: 68.8 nM

Give me apparent KD of MS2 coat protein for each of these sequences, listed below.
1. GGCUACAUGAGGAUCACCCAUGUUUCUCGUCGAGGACCGGUACGGCCGCCACUCGUUGUUGGGACUCAGUAUCAGUCGUUAGUUU [theeternabot_sameState_MS2_Trp_A_36]
2. UGUAUGGACUGAAGGAGCGGGUUGAUAACCUGAGGAUCACCCAGGUAAAAGGCGAAAGCCACCCAGGUAGGUCGCAGUCCAUACU
3. ACAUGAGGAUCACCCAUGUGUGUAAGUCCUCGAGGACCGGUACGGCCGCCACUCGAUUGAGUGUAAGUUGAAUGUAACAUUCAAC [whbob_SS_trypto A_2s10]
4. AAUACAUGAGGAUCACCCAUGUAAGCUGAAGGAGCGCUGGAAACAGCAGGUAGGUCGCAGCUGCGACCUUGGUGAUCUAGGUCGC [(M1)-(M2)-(Arg1)-(Arg2)-(A)'-(M)'-(A)''_Design7]

1. 23.8 nM
2. 16.3 nM
3. 16.4 nM
4. 17.5 nM

###

test system: MS2 coat protein; experiment: apparent KD of MS2 coat protein; higher = weaker reporter binding; settings: Eterna round: R107; input ligand: arginine 13.2 mM
Everything with apparent KD of MS2 coat protein lower than 0.06 µM is No; everything else, including exactly 0.06 µM, is Yes.

The following sequences have reported results that may help.
SEQ STRING: UGGUACUAGGCGGCCGCCACUGGGAGAUACAUGAGGAUCACCCAUGUUUAAUGCCGAGAGGCAACUAGGACCGGGCCUAGUACAU
QUALITATIVE LABEL: Yes
//
SEQ STRING: AAGUGGCACGGAAGGAGCGAGUUUACCUAGAUAACAUGAGGAUCACCCAUGUAUAAUGGGACUCAGGUAGGUCGCCGUUGUCACU [#29 Same State - Arginine B]
QUALITATIVE LABEL: No
//
SEQ STRING: CUCGAGUUAUGAGAUACCAGACUAUAGUUUACAUGAGGAUCACCCAUGUUAUGGGUGGUGGUCCCUUGGCAGCUCAUAUGUUUAA [#08 Exclusion-TheophyllineB]
QUALITATIVE LABEL: Yes

Check if apparent KD of MS2 coat protein >= 0.06 µM (inclusive). Item: ACGUAAAGCAGAAGGAGCGUCUUAAUUCUACAUGAGGAUCACCCAUGUUUACAUUGAAUAUGACAGGUAGGUCGCUGAAGUACGA [JR_SSArginiB_Sub001]
No

Proceed to ACGAUACGACAUGAGGAUCACCCAUGUGAUACCAGCCUGGAAACAGGCCCUUGGCAGCACAAAUACUCCAGAAACGUAUCGAAAA [MAT - Exclusion Theophlline A - Mod of Eli - D6]
Yes

Proceed to ACAAGAGGGAUGGAUACCAGCGACAUGAGGAUCACCCAUGUAUGAGGAUCAGCCAUGUUAUGCCCUUGGCAGCCACGAACAUCAG [SSAMULLIN]
No
